Ref: patent US20230000870A1

- system-tested: CDK7/Cyclin H/MAT1 complex (Homo sapiens)
- Sequence (P50613 whole entry): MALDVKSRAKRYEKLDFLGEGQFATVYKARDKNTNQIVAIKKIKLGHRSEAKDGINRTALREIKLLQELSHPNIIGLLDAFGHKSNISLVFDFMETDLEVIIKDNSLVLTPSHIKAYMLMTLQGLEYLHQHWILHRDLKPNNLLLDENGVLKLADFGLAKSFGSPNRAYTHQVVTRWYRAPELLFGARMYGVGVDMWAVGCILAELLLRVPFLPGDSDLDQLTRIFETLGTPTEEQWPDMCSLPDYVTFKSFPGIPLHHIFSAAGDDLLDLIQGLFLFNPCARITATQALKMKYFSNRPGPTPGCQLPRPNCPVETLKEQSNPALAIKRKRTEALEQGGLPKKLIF
- Sequence (P51946 whole entry partner): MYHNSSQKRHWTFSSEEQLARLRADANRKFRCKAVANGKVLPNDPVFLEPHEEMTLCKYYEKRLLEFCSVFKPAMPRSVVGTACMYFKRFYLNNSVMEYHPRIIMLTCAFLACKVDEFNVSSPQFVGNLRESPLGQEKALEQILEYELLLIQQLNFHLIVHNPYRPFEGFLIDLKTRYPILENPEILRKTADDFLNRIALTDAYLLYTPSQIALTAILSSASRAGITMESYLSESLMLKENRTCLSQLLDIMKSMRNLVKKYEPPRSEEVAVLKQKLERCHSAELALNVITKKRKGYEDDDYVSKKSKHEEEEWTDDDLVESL
- Sequence (P51948 whole entry partner): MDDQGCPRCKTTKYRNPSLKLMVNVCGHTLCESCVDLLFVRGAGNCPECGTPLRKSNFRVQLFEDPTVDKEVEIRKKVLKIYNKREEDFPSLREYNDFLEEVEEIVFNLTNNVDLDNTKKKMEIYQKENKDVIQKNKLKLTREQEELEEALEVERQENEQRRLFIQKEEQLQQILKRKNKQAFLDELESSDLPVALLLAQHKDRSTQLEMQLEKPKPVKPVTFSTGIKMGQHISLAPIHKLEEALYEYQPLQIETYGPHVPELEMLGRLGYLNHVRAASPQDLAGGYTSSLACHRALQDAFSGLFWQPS
- assay-details: CDK7 kinase inhibition assay (Caliper/LabChip EZ Reader)
- assay-setup: CDK7/Cyclin H/MAT1 6 nM, ATP 2 mM, 35 min at 27° C.
quantity-name: IC50

Task item: Recorded IC50 of O=C1CCC(Nc2ncc(Cl)c(-c3c[nH]c4ccccc34)n2)CN1 (stereo not drawn) [Compound 159] , please.
Reply: 20 to 200 nM

Task item: Recorded IC50 of Cn1cc(-c2nc(NC3CCCNC3)ncc2C(F)(F)F)c2cccc(S(C)(=O)=O)c21 (stereo not drawn) [Compound 296] , please.
Reply: 20 to 200 nM

Task item: Recorded IC50 of O=C(O)c1ccc2c(-c3nc(NC4CCCNC4)ncc3C(F)(F)F)c[nH]c2c1 (stereo not drawn) [Compound 306] , please.
Reply: 20 to 200 nM

----------
- system-tested: CDK2/Cyclin E1 complex (Homo sapiens)
- assay-details: CDK2 kinase inhibition assay (Caliper/LabChip EZ Reader)
- assay-setup: CDK2/Cyclin E1 0.5 nM, ATP 2 mM, 35 min at 27° C.
- Experimental: Compounds of the invention were assayed for inhibition of CDK7, CDK9, CDK12, and CDK2 activity at Biortus Biosciences (Jiangyin, Jiangsu Province, P.R. of China) using kinase assays for each CDK developed with a Caliper/LabChip EZ Reader (Perkin Elmer, Waltham, Mass.). […]
quantity-name: IC50

Task item: Recorded IC50 of CCc1cnc(NC2CCCNC2)nc1-c1c[nH]c2nc(C#N)ccc12 (stereo not drawn) , please.
Reply: ≥ 5 µM

Task item: Recorded IC50 of O=S(=O)(c1ccc2c(-c3nc(NC4CCCNC4)ncc3C(F)(F)F)c[nH]c2c1)C(F)F (stereo not drawn) , please.
Reply: 0.2 to 5 µM

Task item: Recorded IC50 of Cc1cccc2c(-c3nc(NC4CCCNC4)ncc3F)c[nH]c12 (stereo not drawn) , please.
Reply: 0.2 to 5 µM

Task item: Recorded IC50 of CCOP(C)(=O)c1cccc2c(-c3nc(NC4CCCNC4)ncc3C(F)(F)F)c[nH]c12 (stereo not drawn) , please.
Reply: 0.2 to 5 µM

Task item: Recorded IC50 of Oc1ncccc1-c1ccc2c(-c3nc(NC4CCCNC4)ncc3C(F)(F)F)c[nH]c2c1 (stereo not drawn) , please.
Reply: 0.2 to 5 µM

Task item: Recorded IC50 of CC1(O)CCN(S(=O)(=O)c2ccc3c(-c4nc(NC5CCCNC5)ncc4C(F)(F)F)c[nH]c3c2)C1 (stereo not drawn) , please.
Reply: 0.2 to 5 µM

----------
- system-tested: CDK12 (aa686-1082)/Cyclin K complex (Homo sapiens)
- Construct: CDK12 (aa686-1082)/Cyclin K complex
- Sequence (Q9NYV4 686-1082): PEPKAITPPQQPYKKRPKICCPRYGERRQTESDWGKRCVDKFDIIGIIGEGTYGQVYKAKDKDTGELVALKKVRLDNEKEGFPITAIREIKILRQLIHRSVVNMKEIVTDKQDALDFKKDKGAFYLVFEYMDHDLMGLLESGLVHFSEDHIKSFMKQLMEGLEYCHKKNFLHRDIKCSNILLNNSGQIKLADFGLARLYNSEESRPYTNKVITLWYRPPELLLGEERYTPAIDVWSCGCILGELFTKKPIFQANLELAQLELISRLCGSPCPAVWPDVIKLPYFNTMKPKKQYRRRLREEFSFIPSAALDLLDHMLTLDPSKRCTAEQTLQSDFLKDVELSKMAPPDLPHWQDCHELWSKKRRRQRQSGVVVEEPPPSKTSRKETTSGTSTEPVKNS
- Sequence (O75909 whole entry partner, the tested form may be a part): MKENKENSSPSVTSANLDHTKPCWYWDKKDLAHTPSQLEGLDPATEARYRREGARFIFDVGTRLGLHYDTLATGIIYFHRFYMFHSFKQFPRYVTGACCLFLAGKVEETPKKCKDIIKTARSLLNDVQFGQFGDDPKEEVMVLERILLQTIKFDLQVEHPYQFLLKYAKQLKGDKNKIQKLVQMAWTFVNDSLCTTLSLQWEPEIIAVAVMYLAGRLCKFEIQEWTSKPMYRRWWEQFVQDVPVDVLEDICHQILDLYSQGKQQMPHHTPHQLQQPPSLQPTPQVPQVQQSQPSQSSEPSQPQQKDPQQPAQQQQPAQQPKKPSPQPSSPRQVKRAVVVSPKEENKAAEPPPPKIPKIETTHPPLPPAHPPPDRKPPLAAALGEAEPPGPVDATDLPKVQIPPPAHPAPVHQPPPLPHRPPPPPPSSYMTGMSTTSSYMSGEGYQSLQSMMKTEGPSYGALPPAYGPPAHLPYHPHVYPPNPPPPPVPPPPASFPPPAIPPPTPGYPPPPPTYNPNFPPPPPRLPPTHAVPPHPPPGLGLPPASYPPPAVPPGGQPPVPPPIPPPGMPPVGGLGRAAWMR
- assay-details: CDK12 kinase inhibition assay (Caliper/LabChip EZ Reader)
- assay-setup: CDK12 (aa686-1082)/Cyclin K 50 nM, ATP 2 mM, 3 hr at 27° C.
pIC50: −log10 of the molar value.
Would you kindly list pIC50 for each of these molecules?

Task item: Recorded pIC50 of FC(F)(F)c1cnc(N[C@H]2CCCNC2)nc1-c1c[nH]c2cc(-c3cccc4cnccc34)ccc12 [Compound 344] , please.
Reply: 5.30 to 6.70

Task item: Recorded pIC50 of OC1CCC(c2cccc3c(-c4nc(NC5CCCNC5)ncc4C(F)(F)F)c[nH]c23)CC1 (stereo not shown) [Compound 185] , please.
Reply: 5.30 to 6.70

Task item: Recorded pIC50 of Cc1cn(-c2cccc3c(-c4nc(NC5CCCNC5)ncc4C(F)(F)F)c[nH]c23)cn1 (stereo not shown) [Compound 172] , please.
Reply: 5.30 to 6.70

Task item: Recorded pIC50 of COCCn1cc(-c2nc(NC3CCCNC3)ncc2C(F)(F)F)c2ccccc21 (stereo not shown) [Compound 123] , please.
Reply: ≤ 5.30
